Target: T1, interleukin 18 binding protein (IL-18BP) (UniProt O95998 31-194)
T1 sequence (looked up): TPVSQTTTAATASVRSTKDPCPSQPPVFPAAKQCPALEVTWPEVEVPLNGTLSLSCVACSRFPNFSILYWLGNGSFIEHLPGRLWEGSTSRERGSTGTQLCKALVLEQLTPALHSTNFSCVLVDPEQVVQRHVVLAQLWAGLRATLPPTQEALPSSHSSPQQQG
Test: cell-based or functional assay
Test Readout: HEK-blue EC50 (pM) + 300 nM BP
Quick reminder: number only, in pM, skip the unit.

Solved cases below.
- Binder: "IL-18 variant K53S, S55Y (ligand) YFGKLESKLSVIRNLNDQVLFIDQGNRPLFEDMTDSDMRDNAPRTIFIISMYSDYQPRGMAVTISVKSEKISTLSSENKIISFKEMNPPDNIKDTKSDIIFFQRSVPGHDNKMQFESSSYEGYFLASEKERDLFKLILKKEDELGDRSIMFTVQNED"
  HEK-blue EC50 (pM) + 300 nM BP: 136
- Binder: "IL-18 variant K53T, S55A (ligand) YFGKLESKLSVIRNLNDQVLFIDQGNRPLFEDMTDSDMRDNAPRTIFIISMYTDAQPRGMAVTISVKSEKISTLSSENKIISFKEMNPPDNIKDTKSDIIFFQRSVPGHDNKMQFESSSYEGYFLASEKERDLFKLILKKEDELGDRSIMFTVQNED"
  HEK-blue EC50 (pM) + 300 nM BP: 140

Consider the additional binder presented here.
Answer with the recorded HEK-blue EC50 (pM) + 300 nM BP of IL-18 variant K53T, S55P (ligand) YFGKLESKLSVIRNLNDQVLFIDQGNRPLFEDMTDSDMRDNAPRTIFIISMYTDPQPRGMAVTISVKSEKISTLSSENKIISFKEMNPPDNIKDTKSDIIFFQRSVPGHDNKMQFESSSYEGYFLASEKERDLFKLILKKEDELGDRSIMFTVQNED only.
133
